subjectOfTest: IGF2 (human, UniProt P01344)
experimentDescription: ELISA
assayMetric: EC50 (nM)
The figure you give is taken to be in nM; do not add the unit.

Lookup: Could you tell me which EC50 is on file for DVD029 IGF1,2 arm (antibody, V domains shown, DVD-Ig inner) VH: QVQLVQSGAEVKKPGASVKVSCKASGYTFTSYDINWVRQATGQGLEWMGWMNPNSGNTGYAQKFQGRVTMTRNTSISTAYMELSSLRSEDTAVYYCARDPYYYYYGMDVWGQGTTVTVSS VL: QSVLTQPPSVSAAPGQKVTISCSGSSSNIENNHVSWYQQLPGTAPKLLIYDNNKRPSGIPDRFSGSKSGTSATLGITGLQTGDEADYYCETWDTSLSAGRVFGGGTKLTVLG ?
Found: 206
